- Test System: Histone deacetylase 1 (Homo sapiens, UniProt Q13547)
- Sequence (Q13547 whole entry): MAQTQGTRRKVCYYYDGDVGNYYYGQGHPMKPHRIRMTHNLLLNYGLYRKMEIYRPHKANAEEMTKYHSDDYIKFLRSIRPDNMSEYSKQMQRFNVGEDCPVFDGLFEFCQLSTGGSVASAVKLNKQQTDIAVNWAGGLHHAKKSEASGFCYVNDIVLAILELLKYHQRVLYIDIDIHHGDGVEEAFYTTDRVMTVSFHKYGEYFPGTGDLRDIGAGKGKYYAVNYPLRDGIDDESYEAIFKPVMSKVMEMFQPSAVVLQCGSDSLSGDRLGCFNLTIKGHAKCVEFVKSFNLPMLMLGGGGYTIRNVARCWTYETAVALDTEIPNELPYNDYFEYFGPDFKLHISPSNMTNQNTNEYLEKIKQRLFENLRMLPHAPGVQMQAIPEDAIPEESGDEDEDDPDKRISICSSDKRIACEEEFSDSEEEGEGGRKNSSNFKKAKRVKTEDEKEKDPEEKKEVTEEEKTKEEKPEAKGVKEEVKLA
- Experiment Summary: Inhibition of human HDAC1 in presence of dithiothreitol by HDAC fluorescent assay
Quick list: pIC50 per entry.
Hey, just a heads up that pIC50 is the negative log base 10 of the concentration in molar.

Previously resolved entries follow.
O=C(N[C@@H](CCCCCCSSc1ccccn1)C(=O)OCC1c2ccccc2-c2ccccc21)OCc1ccccc1
8.12
O=C(N[C@@H](CCCCCCSSc1ccccn1)C(=O)OCc1ccc2ccccc2c1)OCc1ccccc1
7.19
O=C(N[C@@H](CCCCCCSSc1ccccn1)C(=O)OCc1ccc([N+](=O)[O-])cc1)OCc1ccccc1
7.19

// moving on: another record for pIC50
Quick note, pIC50 for `O=C(N[C@@H](CCCCCCSSc1ccccn1)C(=O)OCc1cccc([N+](=O)[O-])c1)OCc1ccccc1` landed at 7.18

###

Quick list: pIC50 per entry.
- Test System: Histone deacetylase 2 (Homo sapiens)
- Sequence (Q92769 whole entry): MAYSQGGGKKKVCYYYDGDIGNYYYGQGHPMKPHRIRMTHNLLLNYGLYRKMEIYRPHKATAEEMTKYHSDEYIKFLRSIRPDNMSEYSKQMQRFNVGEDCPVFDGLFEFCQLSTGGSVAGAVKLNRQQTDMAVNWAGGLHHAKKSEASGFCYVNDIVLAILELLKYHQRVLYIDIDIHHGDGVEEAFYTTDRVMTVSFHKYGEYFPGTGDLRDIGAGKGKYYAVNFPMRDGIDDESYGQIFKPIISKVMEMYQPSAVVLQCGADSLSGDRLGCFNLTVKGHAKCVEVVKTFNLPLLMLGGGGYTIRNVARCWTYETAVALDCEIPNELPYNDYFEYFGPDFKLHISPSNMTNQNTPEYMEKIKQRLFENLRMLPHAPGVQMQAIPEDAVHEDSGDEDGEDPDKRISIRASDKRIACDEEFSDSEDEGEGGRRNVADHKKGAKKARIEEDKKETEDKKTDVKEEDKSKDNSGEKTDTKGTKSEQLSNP
- Experiment Summary: Inhibition of HDAC2 in human HeLa cell nuclear extracts in presence of dithiothreitol by HDAC fluorescent assay
Hey, just a heads up that pIC50 is the negative log base 10 of the concentration in molar.

O=C(N[C@@H](CCCCCCSSc1ccccn1)C(=O)NC1c2ccccc2-c2ccccc21)OCc1ccccc1
7.32

Quick note, pIC50 for `O=C(N[C@@H](CCCCCCSSc1ccccn1)C(=O)Nc1nc(-c2ccccc2)cs1)OCc1ccccc1` landed at 8.41

Quick note, pIC50 for `O=C(N[C@@H](CCCCCCSSc1ccccn1)C(=O)OCc1ccc([N+](=O)[O-])cc1)OCc1ccccc1` landed at 7.34

Quick note, pIC50 for `O=C(N[C@@H](CCCCCCSSc1ccccn1)C(=O)Nc1cccc2ccccc12)OCc1ccccc1` landed at 7.42

Quick note, pIC50 for `O=C(N[C@@H](CCCCCCSSc1ccccn1)C(=O)OCc1cccc2ccccc12)OCc1ccccc1` landed at 7.40

Quick note, pIC50 for `O=C(N[C@@H](CCCCCCSSc1ccccn1)C(=O)NC1CCCCC1)OCc1ccccc1` landed at 7.36

###

Quick list: pIC50 per entry.
- Test System: Histone deacetylase 1 (Homo sapiens, UniProt Q13547)
- Experiment Summary: Inhibition of human HDAC1 in presence of dithiothreitol by HDAC fluorescent assay
Hey, just a heads up that pIC50 is the negative log base 10 of the concentration in molar.

O=C(N[C@@H](CCCCCCSSc1ccccn1)C(=O)Nc1ccc(-c2ccccc2)cc1)OCc1ccccc1
7.15
O=C(N[C@@H](CCCCCCSSc1ccccn1)C(=O)OCc1ccc(-c2ccccc2)cc1)OCc1ccccc1
7.19
O=C(N[C@@H](CCCCCCSSc1ccccn1)C(=O)Nc1ccccc1-c1ccccc1)OCc1ccccc1
7.15
O=C(N[C@@H](CCCCCCSSc1ccccn1)C(=O)Nc1nc(-c2ccccc2)cs1)OCc1ccccc1
8.29
O=C(N[C@@H](CCCCCCSSc1ccccn1)C(=O)OCc1cccc2ccccc12)OCc1ccccc1
7.19

Quick note, pIC50 for `O=C(N[C@@H](CCCCCCSSc1ccccn1)C(=O)OCc1c2ccccc2cc2ccccc12)OCc1ccccc1` landed at 7.23

###

- Test System: Histone deacetylase 2 (Homo sapiens)
- Experiment Summary: Inhibition of HDAC2 in human HeLa cell nuclear extracts in presence of dithiothreitol by HDAC fluorescent assay
Measurement Label: pIC50
Hey, just a heads up that pIC50 is the negative log base 10 of the concentration in molar.

O=C(N[C@@H](CCCCCCSSc1ccccn1)C(=O)OCc1ccc2ccccc2c1)OCc1ccccc1
7.39
O=C(N[C@@H](CCCCCCSSc1ccccn1)C(=O)OCc1cccc([N+](=O)[O-])c1)OCc1ccccc1
7.31
O=C(N[C@@H](CCCCCCSSc1ccccn1)C(=O)OCc1c2ccccc2cc2ccccc12)OCc1ccccc1
7.36
O=C(N[C@@H](CCCCCCSSc1ccccn1)C(=O)OCC1c2ccccc2-c2ccccc21)OCc1ccccc1
8.28

Known value: Histone deacetylase 2 (Homo sapiens) pIC50 of the compound `O=C(N[C@@H](CCCCCCSSc1ccccn1)C(=O)Nc1ccccc1-c1ccccc1)OCc1ccccc1` equals 7.34

Known value: Histone deacetylase 2 (Homo sapiens) pIC50 of the compound `O=C(N[C@@H](CCCCCCSSc1ccccn1)C(=O)OCc1ccc(-c2ccccc2)cc1)OCc1ccccc1` equals 7.39

Known value: Histone deacetylase 2 (Homo sapiens) pIC50 of the compound `O=C(N[C@@H](CCCCCCSSc1ccccn1)C(=O)Nc1ccc(-c2ccccc2)cc1)OCc1ccccc1` equals 7.33

###

- Test System: Histone deacetylase 1 (Homo sapiens)
- Experiment Summary: Inhibition of human HDAC1 in presence of dithiothreitol by HDAC fluorescent assay
Measurement Label: IC50 (nM)
Write the value in nM as a bare number.

Previously resolved entries follow.
O=C(N[C@@H](CCCCCCSSc1ccccn1)C(=O)NC1CCCCC1)OCc1ccccc1
66.9
O=C(N[C@@H](CCCCCCSSc1ccccn1)C(=O)Nc1cccc2ccccc12)OCc1ccccc1
65.2

Quick note, IC50 for `O=C(N[C@@H](CCCCCCSSc1ccccn1)C(=O)NC1c2ccccc2-c2ccccc21)OCc1ccccc1` landed at 68.2
